Origin of the recorded values: ChEMBL document CHEMBL1139663

- assayed target: Estrogen receptor (Homo sapiens, UniProt P03372)
- Sequence (P03372 whole entry): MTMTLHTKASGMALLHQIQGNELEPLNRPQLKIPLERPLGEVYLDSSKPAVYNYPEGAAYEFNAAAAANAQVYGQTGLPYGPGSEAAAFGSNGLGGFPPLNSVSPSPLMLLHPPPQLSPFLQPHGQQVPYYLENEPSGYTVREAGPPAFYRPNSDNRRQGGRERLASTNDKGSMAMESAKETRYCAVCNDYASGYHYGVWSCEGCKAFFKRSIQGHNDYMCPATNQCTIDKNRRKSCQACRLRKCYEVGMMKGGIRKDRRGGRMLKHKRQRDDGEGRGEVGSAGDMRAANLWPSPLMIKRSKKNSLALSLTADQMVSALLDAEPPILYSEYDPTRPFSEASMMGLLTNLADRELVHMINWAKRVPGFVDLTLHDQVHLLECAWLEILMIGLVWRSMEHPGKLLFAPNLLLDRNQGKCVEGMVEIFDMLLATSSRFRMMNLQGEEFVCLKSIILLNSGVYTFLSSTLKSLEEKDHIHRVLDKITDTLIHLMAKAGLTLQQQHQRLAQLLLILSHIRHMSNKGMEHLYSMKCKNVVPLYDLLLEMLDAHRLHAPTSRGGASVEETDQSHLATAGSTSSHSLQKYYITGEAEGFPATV
measure: IC50 (µM)

In [3]: df
Out[3]:
                                   molecule  value_measured
0  CCC1Oc2c(ccc(O)c2C)-c2ccc(O)c(C)c21 (stereo not given)           0.101

P. Cc1c(O)ccc2c1oc(=O)c1c(C)c(N)ccc12
Q. Cc1c(O)ccc2c1oc(=O)c1c(C)c(NS(C)(=O)=O)ccc12
R. Cc1c(O)ccc2c1c(=O)oc1cc(O)ccc12
S. COc1cc2c(=O)oc3c(C)c(O)ccc3c2cc1Br
**Q:** List items by IC50 in falling order. Thanks in advance for listing the labels in the requested order.
**A:** P, S, Q, R

----------
- assayed target: Estrogen receptor beta (Homo sapiens)
- Sequence (Q92731 whole entry): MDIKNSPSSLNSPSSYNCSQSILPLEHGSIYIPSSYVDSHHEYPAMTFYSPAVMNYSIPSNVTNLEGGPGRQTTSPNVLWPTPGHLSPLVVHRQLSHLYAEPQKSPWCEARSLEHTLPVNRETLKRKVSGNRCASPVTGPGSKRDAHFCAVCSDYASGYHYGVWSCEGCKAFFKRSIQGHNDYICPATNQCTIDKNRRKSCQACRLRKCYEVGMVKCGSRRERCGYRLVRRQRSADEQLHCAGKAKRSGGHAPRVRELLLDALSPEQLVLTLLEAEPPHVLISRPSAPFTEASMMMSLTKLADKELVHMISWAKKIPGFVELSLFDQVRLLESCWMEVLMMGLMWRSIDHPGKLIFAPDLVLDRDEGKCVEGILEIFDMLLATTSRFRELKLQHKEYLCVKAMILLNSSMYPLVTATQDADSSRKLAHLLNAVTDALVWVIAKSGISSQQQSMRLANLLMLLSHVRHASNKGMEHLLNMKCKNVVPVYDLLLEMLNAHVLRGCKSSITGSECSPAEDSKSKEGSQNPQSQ
measure: pEC50
Scale: negative log10 of molar concentration, which is what pEC50 denotes.

**Q:** Which pEC50 is listed for "Cc1c(O)ccc2c1oc(=O)c1c(C)c(O)ccc12" ?
**A:** 8.14

----------
Observed IC50 for Estrogen receptor beta (Homo sapiens), reported per entry below.
measure: IC50 (nM)

P. C=Cc1cc(C)cc2c(=O)oc3c(C)c(O)ccc3c12
Q. Cc1c(O)ccc2c1oc(=O)c1c(C)c(O)ccc12
**Q:** Please compare: P and Q . Report which one has the smaller IC50 value. Give the chosen item's label as your response.
**A:** Q

----------
Observed pIC50 for Estrogen receptor beta (Homo sapiens), reported per entry below.
pIC50: −log10 of the molar value.
measure: pIC50

The examples below pair each entry with its known result.
>>> print(df.to_string())
                                   compound  value_measured
0  Cc1cc(O)c(C)c2c1-c1ccc(O)c(C)c1OC2C (configuration not stated)            8.05
1      CCc1cc(OC)cc2c(=O)oc3c(C)c(O)ccc3c12            7.16
2        Cc1c(O)ccc2c1c(=O)oc1cc(O)cc(C)c12            7.17
3  COc1c(C)c(Br)c2c(=O)oc3c(C)c(O)ccc3c2c1C            8.94
4           Cc1c(O)ccc2c1oc(=O)c1cc(O)ccc12            7.34
5           Cc1cc(O)cc2c1-c1ccc(O)c(C)c1OC2            7.13
6  CC/C=C/c1cc2c(cc1Br)c(=O)oc1c(C)c(O)ccc12            7.59
7         Cc1cc(C)c2c(c1)c(=O)oc1cc(O)ccc12            7.05
8     C=Cc1cc(OC)cc2c(=O)oc3c(C)c(O)ccc3c12            7.28
9      C/C=C/c1cccc2c(=O)oc3c(C)c(O)ccc3c12            6.94

P. Cc1c(O)ccc2c1c(=O)oc1c(F)c(O)ccc12
Q. COc1ccc2c(c1C)c(=O)oc1c(C)c(O)ccc12
**Q:** Which of the two items, P and Q , has the greater recorded pIC50? Give the chosen item's label as your response.
**A:** P

----------
Observed pIC50 for Estrogen receptor beta (Homo sapiens), reported per entry below.
pIC50: −log10 of the molar value.
measure: pIC50

>>> print(df.to_string())
                               compound  measure  value_measured
0   CCc1c(O)ccc2c1c(=O)oc1c(C)c(O)ccc12    pIC50            7.85
1  C=Cc1cc(C)cc2c(=O)oc3c(C)c(O)ccc3c12    pIC50            8.00
2   C=Cc1ccc2c(c1)c(=O)oc1c(C)c(O)ccc12    pIC50            6.51
3  Cc1c(O)ccc2c1oc(=O)c1c(Br)cc(Br)cc12    pIC50            7.62

A. Cc1c(O)ccc2c1OC(C)c1c-2ccc(O)c1C (configuration not stated)
B. CCc1cc(O)cc2c(=O)oc3c(C)c(O)ccc3c12
C. CCCC1Oc2c(ccc(O)c2C)-c2c(C)cc(O)cc21 (configuration not stated)
D. Cc1c(O)ccc2c1oc(=O)c1c(C)c(O)ccc12
**Q:** Sort the compounds on pIC50; start with the lowest figure. Thanks in advance for listing the labels in the requested order.
**A:** B, C, A, D
(B: 7.04, C: 7.66, A: 8.10, D: 8.39)

----------
Observed IC50 for UniProt Q92731, reported per entry below.
measure: IC50 (nM)

>>> df
                                  compound  unit_abbreviation  value_measured
0       Cc1c(O)cc(C)c2c1oc(=O)c1cc(O)ccc12                 nM              27
1  Cc1c(O)c(Cl)cc2c1c(=O)oc1c(Cl)c(O)ccc12                 nM              19

P. Cc1c(O)ccc2c1oc(=O)c1cc(Br)ccc12
Q. CCc1c(O)ccc2c1oc(=O)c1c(C)c(O)ccc12
**Q:** Please compare: P and Q . Report which one has the smaller IC50 value. Give the chosen item's label as your response.
**A:** Q
(Q: 7.8 nM, P: 128 nM)

1. Cc1c(O)ccc2c1oc(=O)c1c(C)ccc(C)c12
2. C=CCC1(C)Oc2c(ccc(O)c2C)-c2c(C)cc(O)c(C)c21 (centres undefined)
**Q:** Which of the two items, 1 and 2 , has the greater recorded IC50? Give the chosen item's label as your response.
**A:** 1

I. Cc1c(O)ccc2c1oc(=O)c1cccc(C)c12
II. Cc1c(O)ccc2c1oc(=O)c1ccccc12
**Q:** Please compare: I and II . Report which one has the smaller IC50 value. Give the chosen item's label as your response.
**A:** I
(I: 326 nM, II: 1450 nM)

----------
- assayed target: Estrogen receptor beta (Homo sapiens)
measure: IC50 (nM)

I. Cc1c(O)ccc2c1oc(=O)c1c(C)c(N)ccc12
II. Cc1c(O)ccc2c1oc(=O)c1c(O)c(O)ccc12
**Q:** Which of the two items, I and II , has the greater recorded IC50? Give the chosen item's label as your response.
**A:** I
(I: 279 nM, II: 82 nM)

a. Cc1c(O)ccc2c1c(=O)oc1cc(O)ccc12
b. CCc1c(O)ccc2c1oc(=O)c1cc(Br)ccc12
c. O=c1oc2c(Cl)c(O)ccc2c2cc(F)c(O)c(Cl)c12
**Q:** List items by IC50 in falling order. Thanks in advance for listing the labels in the requested order.
**A:** b, c, a
(b: 2340 nM, c: 180 nM, a: 49 nM)

a. Cc1cc(O)cc2c1-c1ccc(O)c(C)c1OC2CC(C)C (stereo unspecified)
b. Cc1c(O)ccc2c1oc(=O)c1c(C)c(NC=O)ccc12
c. C=Cc1cccc2c(=O)oc3c(C)c(O)ccc3c12
d. COc1c(C)cc2c(=O)oc3c(C)c(O)ccc3c2c1C
e. Cc1c(O)ccc2c1COc1c-2ccc(O)c1C
**Q:** List items by IC50 in falling order. Thanks in advance for listing the labels in the requested order.
**A:** b, c, e, a, d
(b: 957 nM, c: 208 nM, e: 88 nM, a: 49 nM, d: 16 nM)

A. Cc1cc2c(=O)oc3c(C)c(O)ccc3c2c(C)c1Br
B. CCc1c(O)ccc2c1c(=O)oc1c(F)c(O)ccc12
**Q:** Please compare: A and B . Report which one has the smaller IC50 value. Give the chosen item's label as your response.
**A:** B

P. C=Cc1cc(O)cc2c1-c1ccc(O)c(C)c1CC2 [EFFUSOL]
Q. Cc1c(O)ccc2c1OC(C)(C)c1c-2ccc(O)c1C
R. Cc1c(O)ccc2c1c(=O)oc1c(Br)c(O)ccc12
**Q:** Sort the compounds on IC50; start with the lowest figure. Thanks in advance for listing the labels in the requested order.
**A:** P, Q, R

a. Cc1cc(O)cc2c1-c1ccc(O)c(C)c1OC2C (stereo unspecified)
b. CCC1Oc2c(ccc(O)c2C)-c2c(C)cc(O)cc21 (stereo unspecified)
c. Cc1c(O)ccc2c1oc(=O)c1cc(O)cc(C)c12
**Q:** List items by IC50 in falling order. Thanks in advance for listing the labels in the requested order.
**A:** c, a, b
(c: 54 nM, a: 24 nM, b: 8 nM)

A. Cc1cc(C)c2c(c1)c(=O)oc1c(C)c(O)ccc12
B. COc1ccc2c(c1)c(=O)oc1c(C)c(O)ccc12
**Q:** Please compare: A and B . Report which one has the smaller IC50 value. Give the chosen item's label as your response.
**A:** A
(A: 20 nM, B: 308 nM)

I. Cc1cc(O)c(Cl)c2c(=O)oc3c(Cl)c(O)ccc3c12
II. COc1cc2c(=O)oc3c(C)c(O)ccc3c2cc1Br
III. Cc1cc2c(cc1Br)c(=O)oc1c(C)c(O)ccc12
IV. Cc1cc(Br)c2c(c1)c(=O)oc1c(C)c(O)ccc12
V. Cc1c(O)ccc2c1oc(=O)c1c(C)c(O)cc(C)c12
**Q:** List items by IC50 in falling order. Thanks in advance for listing the labels in the requested order.
**A:** III, II, IV, I, V
(III: 215 nM, II: 77 nM, IV: 44 nM, I: 18 nM, V: 5.7 nM)
